What log2 fold change of degron read counts was measured for each of the following?
# Measured Target: T1, CRBN, Q96SW2;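 note: pooled lentiviral library of zinc finger degron-EGFP fusions in mCherry-positive Jurkat cells, FACS-sorted after compound exposure, with degron abundance counted by next-generation sequencing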
# T1 chain: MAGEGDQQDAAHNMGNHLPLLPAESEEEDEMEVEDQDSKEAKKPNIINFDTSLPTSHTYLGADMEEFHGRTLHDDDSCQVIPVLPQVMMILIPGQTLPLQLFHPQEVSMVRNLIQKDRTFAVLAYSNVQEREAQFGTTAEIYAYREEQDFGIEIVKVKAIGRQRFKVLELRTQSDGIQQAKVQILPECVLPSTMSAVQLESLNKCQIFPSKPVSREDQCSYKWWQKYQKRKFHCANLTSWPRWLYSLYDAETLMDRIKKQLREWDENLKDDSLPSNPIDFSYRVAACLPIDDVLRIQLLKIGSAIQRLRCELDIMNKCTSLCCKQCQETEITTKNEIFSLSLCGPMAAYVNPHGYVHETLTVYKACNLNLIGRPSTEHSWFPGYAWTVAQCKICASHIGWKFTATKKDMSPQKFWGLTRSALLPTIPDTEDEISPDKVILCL
# Assay Name: log2 fold change of degron read counts, EGFP-low vs EGFP+ sorted cells (limma voom), compound-induced degradation; higher = more compound-induced degradation of the degron-EGFP fusion; degrons are variants of IKZF1/3 zinc finger 2; compound dose not given here
# Measurement Setup: Jurkat; 18 h; compound: thalidomide
Over roughly 8,300 sequences, “log2 fold change of degron read counts, EGFP-low vs EGFP+ sorted cells (limma voom), compound-induced degradation” has its median near -1.1; the highest 2% begin near 3.2. What follows is part of a selection rich in the highest values, with near analogues and random picks from the rest.
Answers are plain numbers.

Here are 4 sequences together with their reported answers.
LYCEICGFTCTQKGNLLRHIKL [46L_47Y_49E_50I_52G_53F_54T_55C_67L_, Q9UKT9] : 2.25
FRCEICGAIFTQKGNLLRHIKL [46F_47R_49E_50I_52G_53A_54I_55F_67L_, Q9UKT9] : 1.56
FECPICGRFFTQKGNLLRHIKL [46F_47E_49P_50I_52G_53R_54F_55F_67L_, Q9UKT9] : 0.632
FVCNICGAAFTQKGNLLRHIKL [46F_47V_49N_50I_52G_53A_54A_55F_67L_, Q9UKT9] : 2.31

For each of the sequences below, state log2 fold change of degron read counts.
1. FHCEICGAIFTQKGNLLRHIKL [46F_47H_49E_50I_52G_53A_54I_55F_67L_, Q9UKT9]
2. LQCEICGFTCTQKGNLLRHIKL [46L_47Q_49E_50I_52G_53F_54T_55C_67L_, Q9UKT9]
3. FDCEICGAIFTQKGNLLRHIKL [46F_47D_49E_50I_52G_53A_54I_55F_67L_, Q9UKT9]

Result:
[-0.388, 3.65, -0.014]
